- target.entity: NAMPT (human, recombinant, C-terminally His-tagged) (Homo sapiens, UniProt P43490)
- Sequence (P43490 whole entry): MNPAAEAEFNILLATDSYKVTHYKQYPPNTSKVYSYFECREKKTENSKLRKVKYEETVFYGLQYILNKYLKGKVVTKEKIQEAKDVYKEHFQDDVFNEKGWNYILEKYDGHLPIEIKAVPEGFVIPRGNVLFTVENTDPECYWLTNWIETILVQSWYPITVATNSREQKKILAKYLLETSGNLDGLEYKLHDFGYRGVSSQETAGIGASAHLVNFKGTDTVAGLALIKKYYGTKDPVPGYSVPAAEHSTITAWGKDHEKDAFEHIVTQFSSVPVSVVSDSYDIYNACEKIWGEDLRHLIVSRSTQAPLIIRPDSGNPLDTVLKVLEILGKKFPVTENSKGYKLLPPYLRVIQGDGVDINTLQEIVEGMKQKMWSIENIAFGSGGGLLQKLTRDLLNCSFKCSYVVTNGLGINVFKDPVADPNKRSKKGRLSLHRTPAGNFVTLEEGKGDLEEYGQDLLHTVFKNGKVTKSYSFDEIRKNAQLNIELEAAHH
- assay.notes: Time-Resolved Fluorescence Resonance Energy Transfer (TR-FRET) Binding Assay of NAMPT
- measurement.setup: without substrates; 6.8 nM NAMPT, 200 nM probe, 3 hours equilibration
Exercise: for every item that follows, state its recorded IC50.
Number in µM, nothing else.

Measured IC50, O=C(CC1CCOC1)Nc1ccc(C(=O)NCc2ccn3ccnc3c2)cc1 (stereo not shown) : 0.641

Looking up "O=C(NCc1ccc2nccn2c1)c1ccc(OC2CCN(C(=O)C3CC3)CC2)cc1" , I found its IC50 recorded as 1.31

Form field IC50, entry CC(C)C(C)C(=O)N1CCC(c2ccc(C(=O)NCc3ccn4ccnc4c3)cc2)C1 (stereo not shown) : 0.544

Lab note: measured IC50 of "O=C(NCc1ccn2ccnc2c1)c1ccc(C2CCN(C(=O)c3ccccn3)CC2)cc1" was 0.309
